These entries and their values trace back to paper PMC7253423.

# measurement description: Cytotoxicity, cell viability assay in normal cells
# Type: cell-based
# experimental context: human, B-cells, Con. 0.015625 μM, fraction of 0 μM control; read-out: relative cell viability (Fig 6c), replicates
# Experimental: Human peripheral blood mononuclear cells (PBMCs), normal T-cells and B-cells were provided by the University of Pennsylvania Human Immunology Core (HIC), and Patient-derived xenografts (PDXs) were obtained from Fox Chase Cancer Center (FCCC). […] 5000 cells as indicated were cultured in 96-well plate with 100 μl of media. […] Luminescence was detected using a multi-mode reader Cytation 5 (BioTek, Winooski, VT). […]
observed property: viability at 0.015625 μM (%)

[
  {
    "molecule": "COC(=O)C12OCC34C(CC5C(C)=C(OC(=O)CNC(=O)OC(C)(C)C)C(=O)CC5(C)C3C(O)C1O)OC(=O)C(OC(=O)C=C(C)C)C24 (stereo not shown) [#15]",
    "observed property": "viability at 0.015625 μM",
    "value observed": 100
  }
]

* * *

# measurement description: Cytotoxicity, cell viability assay in normal cells
# Assay type: cell-based
# experimental context: human, normal B-cells from healthy donors, B-cells, Con. […], fraction of 0 μM control; read-out: relative cell viability (Fig 6c), replicates
observed property: viability at […] (%)

[
  {
    "compound": "C[C@H](NC(=O)c1c(N)nn2cccnc12)c1cc2cccc(C#Cc3cnn(C)c3)c2c(=O)n1-c1ccccc1 [IPI-549]",
    "observed property": "viability at […]",
    "value observed": 122
  }
]

* * *

# measurement description: Cytotoxicity, cell viability assay in normal cells
# Format: cell-based
# experimental context: human, normal T-cells from healthy donors, T-cells, Con. 0.015625 μM, fraction of 0 μM control; read-out: relative cell viability (Fig 6b), replicates

[
  {
    "compound": "C[C@H](Nc1ncnc2nc[nH]c12)c1cc2cccc(Cl)c2c(=O)n1-c1ccccc1",
    "viability at 0.015625 μM / %": 99.3
  },
  {
    "compound": "C[C@H](NC(=O)c1c(N)nn2cccnc12)c1cc2cccc(C#Cc3cnn(C)c3)c2c(=O)n1-c1ccccc1",
    "viability at 0.015625 μM / %": 109
  },
  {
    "compound": "COc1c(OCCCN2CCOCC2)ccc2c1N=C(NC(=O)c1cnc(N)nc1)N1CCN=C21",
    "viability at 0.015625 μM / %": 94.4
  },
  {
    "compound": "CC[C@H](Nc1ncnc2[nH]cnc12)c1nc2cccc(F)c2c(=O)n1-c1ccccc1",
    "viability at 0.015625 μM / %": 98.9
  }
]

* * *

# measurement description: Cytotoxicity, cell viability assay in normal cells
# Assay type: cell-based, human
# experimental context: human, relative cell viability (Fig 6a), replicates

[
  {
    "compound": "COC(=O)C12OCC34C(CC5C(C)=C(OC(=O)CC(C)N)C(=O)CC5(C)C3C(O)C1O)OC(=O)C(OC(=O)C=C(C)C)C24 (stereo not shown) [#26]",
    "viability at 1 μM / %": 61.8
  }
]

* * *

# measurement description: Cytotoxicity, cell viability assay in normal cells
# Format: cell-based
# experimental context: human, relative cell viability (Fig 6b), replicates
observed property: viability at 1 μM (%)

[
  {
    "compound": "COC(=O)C12OCC34C(CC5C(C)=C(OC(=O)CC(C)N)C(=O)CC5(C)C3C(O)C1O)OC(=O)C(OC(=O)C=C(C)C)C24 (stereo not shown)",
    "observed property": "viability at 1 μM",
    "value observed": 82.6
  }
]
